# studySystem: Mitogen-activated protein kinase 1 (Homo sapiens) (UniProt P28482);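 note: reported figure is an averaged percent inhibition of the kinase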
# Sequence (P28482 whole entry): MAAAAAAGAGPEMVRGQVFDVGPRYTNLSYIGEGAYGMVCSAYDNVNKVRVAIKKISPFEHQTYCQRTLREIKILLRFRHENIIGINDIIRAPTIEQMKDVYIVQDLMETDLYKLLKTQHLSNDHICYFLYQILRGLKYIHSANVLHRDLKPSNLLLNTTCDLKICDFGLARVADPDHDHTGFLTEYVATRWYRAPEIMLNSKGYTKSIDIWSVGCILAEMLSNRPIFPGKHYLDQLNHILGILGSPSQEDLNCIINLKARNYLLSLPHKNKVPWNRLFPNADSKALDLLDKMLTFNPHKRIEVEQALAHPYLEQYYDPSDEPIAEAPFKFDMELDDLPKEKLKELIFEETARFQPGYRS
# details: at 0.1 µM
Some molecules, each annotated with its measured inhibition.

compoundStructure	inhibition
COc1cc2c(cc1Nc1nc(N3CCc4ccccc43)c3cc[nH]c3n1)N(C(=O)CN(C)C)CC2	0.85%
CCn1c(-c2nonc2N)nc2cnc(Oc3cccc(NC(=O)c4ccc(OCCN5CCOCC5)cc4)c3)cc21	3.22%
Nc1nc(-c2ccc3c(c2)C(=Cc2cc(Br)c(O)c(Br)c2)C(=O)N3)cs1	-2.57%
CN(C)c1cc2c(Nc3ccc4nc(Cc5ccccc5)[nH]c4c3)ncnc2cn1	4.86%
O=C1NC(=O)C(c2ccccc2Cl)=C1Nc1cccc(O)c1	2.64%
COc1cc(C=NNc2ncnc3c2cnn3-c2ccccc2)ccc1O	2.39%
O=C1Nc2ccc(C(=O)c3ccco3)cc2C1=Cc1cc(Cl)c(O)c(Cl)c1	2.44%
O=C1NC(=O)C(N2CCc3ccccc32)=C1c1ccc(Cl)cc1	3.12%
Cc1cc(O)cc(C)c1/C=C/c1cncc(-c2nn[nH]n2)c1	4.59%
NS(=O)(=O)c1cccc(-c2ccc3c(NC(=O)C4CC4)n[nH]c3c2)c1	-2.53%

###

# studySystem: Serine/threonine-protein kinase Sgk1 (Homo sapiens) (UniProt O00141);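 note: mean percent inhibition of SGK1, from the GSK PKIS screening panel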
# Sequence (O00141 whole entry): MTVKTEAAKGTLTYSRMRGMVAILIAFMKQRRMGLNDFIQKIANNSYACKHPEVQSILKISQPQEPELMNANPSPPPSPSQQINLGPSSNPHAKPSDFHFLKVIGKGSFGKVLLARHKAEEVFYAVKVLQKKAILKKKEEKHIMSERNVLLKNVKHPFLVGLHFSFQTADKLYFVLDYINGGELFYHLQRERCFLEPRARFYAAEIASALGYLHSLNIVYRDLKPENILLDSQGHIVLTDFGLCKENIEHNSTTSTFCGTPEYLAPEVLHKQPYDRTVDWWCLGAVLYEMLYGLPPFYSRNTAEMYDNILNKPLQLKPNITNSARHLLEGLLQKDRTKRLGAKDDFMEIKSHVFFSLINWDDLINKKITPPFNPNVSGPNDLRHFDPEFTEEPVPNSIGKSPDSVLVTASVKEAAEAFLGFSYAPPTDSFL
# details: at 1 µM
Some molecules, each annotated with its measured inhibition.
measuredEndpoint: inhibition (%)

compoundStructure	endpointResult
Fc1cccc(COc2ccc(Nc3ncnc4sc(-c5cccs5)cc34)cc2Cl)c1	0.86
CS(=O)(=O)CCN(CC#N)Cc1ccc(-c2ccc3ncnc(Nc4ccc(OCc5cccc(F)c5)c(Cl)c4)c3c2)o1	0.86
COc1cc2ncn(-c3cc(O[C@H](C)c4ccccc4Cl)c(C(N)=O)s3)c2cc1OC	7.28
Nc1ncnc2occ(-c3ccc(NC(=O)Nc4cc(C(F)(F)F)cc(C(F)(F)F)c4)cc3)c12	1.38
CCn1c(-c2nonc2N)nc2c(C#CC(C)(C)O)nc(CN3CCCC3)cc21	0.58
NS(=O)(=O)c1cccc(-c2ccc3c(NC(=O)C4CC4)n[nH]c3c2)c1	2.69
COc1cc(C=NNc2ncnc3c2cnn3-c2ccccc2)ccc1O	12.3
CCn1c(-c2nonc2N)nc2cncc(C(=O)N3CCNCC3)c21	4.77
CCn1c(-c2nonc2N)nc2ccncc21	1.04
O=C1NC(=O)C(N2CCc3ccccc32)=C1c1ccc(Cl)cc1	2.97
COc1cccc(-n2ncc3c(N/N=C/c4cccc(F)c4)ncnc32)c1	2.87
CNC(=O)c1cncc(/C=C/c2c(Cl)cccc2Cl)c1	-0.45

###

# studySystem: Ephrin type-B receptor 2 (Homo sapiens) (UniProt P29323);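 note: reported as mean inhibition of EPHB2, from the GSK PKIS dataset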
# Sequence (P29323 whole entry): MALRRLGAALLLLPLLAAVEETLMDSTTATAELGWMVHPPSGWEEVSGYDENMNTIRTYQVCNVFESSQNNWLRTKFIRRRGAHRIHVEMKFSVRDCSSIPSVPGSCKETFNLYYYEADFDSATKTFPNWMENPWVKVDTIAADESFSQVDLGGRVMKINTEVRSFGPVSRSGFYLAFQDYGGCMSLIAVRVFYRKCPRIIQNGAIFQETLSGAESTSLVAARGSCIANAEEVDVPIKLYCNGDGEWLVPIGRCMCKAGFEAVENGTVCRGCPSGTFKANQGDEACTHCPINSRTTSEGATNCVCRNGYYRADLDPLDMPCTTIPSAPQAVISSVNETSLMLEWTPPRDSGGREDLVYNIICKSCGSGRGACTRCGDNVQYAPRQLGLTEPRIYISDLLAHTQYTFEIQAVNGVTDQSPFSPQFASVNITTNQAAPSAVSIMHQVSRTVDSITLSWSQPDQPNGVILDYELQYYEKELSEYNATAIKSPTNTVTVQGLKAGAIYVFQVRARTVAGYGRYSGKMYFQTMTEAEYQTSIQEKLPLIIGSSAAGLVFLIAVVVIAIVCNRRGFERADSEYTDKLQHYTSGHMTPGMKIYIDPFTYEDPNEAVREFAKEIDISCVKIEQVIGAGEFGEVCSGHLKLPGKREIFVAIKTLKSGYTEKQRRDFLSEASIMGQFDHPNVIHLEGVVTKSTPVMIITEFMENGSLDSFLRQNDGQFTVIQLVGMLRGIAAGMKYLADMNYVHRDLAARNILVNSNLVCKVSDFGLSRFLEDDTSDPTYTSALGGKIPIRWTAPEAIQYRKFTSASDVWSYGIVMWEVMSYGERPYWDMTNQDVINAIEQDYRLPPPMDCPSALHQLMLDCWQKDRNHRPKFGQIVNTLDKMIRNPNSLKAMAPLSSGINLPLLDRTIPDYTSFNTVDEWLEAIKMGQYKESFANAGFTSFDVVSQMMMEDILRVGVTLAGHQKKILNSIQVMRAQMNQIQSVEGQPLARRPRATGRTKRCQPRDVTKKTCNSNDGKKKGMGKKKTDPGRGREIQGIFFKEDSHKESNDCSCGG
# details: at 0.1 µM
Some compounds, each annotated with its measured inhibition.
measuredEndpoint: inhibition (%)

compound	endpointResult
CC1=C(C(=O)Nc2ccc3[nH]ncc3c2)C(c2ccc(F)cc2)NC(=O)N1 (centres undefined)	2.76
CCn1c(-c2nonc2N)nc2c(C#CC(C)(C)O)nc(CN3CCCC3)cc21	-4.91
COc1cc2ncn(-c3cc(O[C@@H](C)c4ccccc4Cl)c(C(N)=O)s3)c2cc1OC	7.76
Cn1cc(C=C2C(=O)Nc3cccnc32)c2ccccc21	3.99
CNC(=O)c1cncc(/C=C/c2c(Cl)cccc2Cl)c1	10.3
CCc1cccc(NC(=O)Nc2ccc(Oc3ccc4nc(NC(=O)OC)[nH]c4c3)cc2)c1	44.5
COc1cc2c(cc1Nc1nc(N3CCc4ccccc43)c3cc[nH]c3n1)N(C(=O)CN(C)C)CC2	2.81
COc1ccccc1Nc1ncc(-c2ccccc2)o1	7.35
NS(=O)(=O)c1ccc(N/N=C2\C(=O)Nc3ccc(C(=O)NCCc4c[nH]cn4)cc32)cc1	11.4
